- System: HCT-116 cells
- ASSAY_DETAILS: Inhibition of cell growth (MTT), HCT-116 cells
- CONDITIONS_USED: Homo sapiens, HCT-116, 120 h, read-out: IC50 HCT 116 cells
PROPERTY_NAME: IC50

{"COMPOUND": "O=C1CCCCc2cnn3c(NC4CC4)nc(nc23)Nc2cccc(c2)N1 [Compound 11a]", "PROPERTY_NAME": "IC50", "RESULT_VALUE": "< 1000 nM"}
{"COMPOUND": "CN(C)CCNC(=O)c1cccc(Nc2nc3nc4c(cnn24)CCCCC(=O)Nc2cccc(c2)N3)c1 [Compound 11k]", "PROPERTY_NAME": "IC50", "RESULT_VALUE": "< 1000 nM"}
{"COMPOUND": "CN(C)C1CCN(C(=O)c2cccc(Nc3cc4nc5c(cnn35)CCCCC(=O)Nc3cccc(c3)N4)c2)C1 (stereo not shown) [Compound 18a]", "PROPERTY_NAME": "IC50", "RESULT_VALUE": "< 3000 nM"}
{"COMPOUND": "O=C1CCCCc2cnn3c(Nc4cccnc4)nc(nc23)Nc2cccc(c2)N1 [Compound 11d]", "PROPERTY_NAME": "IC50", "RESULT_VALUE": "< 1000 nM"}
